Consider compounds characterized by their AC50 with Motilin receptor (Homo sapiens).
Sequence (O43193 whole entry): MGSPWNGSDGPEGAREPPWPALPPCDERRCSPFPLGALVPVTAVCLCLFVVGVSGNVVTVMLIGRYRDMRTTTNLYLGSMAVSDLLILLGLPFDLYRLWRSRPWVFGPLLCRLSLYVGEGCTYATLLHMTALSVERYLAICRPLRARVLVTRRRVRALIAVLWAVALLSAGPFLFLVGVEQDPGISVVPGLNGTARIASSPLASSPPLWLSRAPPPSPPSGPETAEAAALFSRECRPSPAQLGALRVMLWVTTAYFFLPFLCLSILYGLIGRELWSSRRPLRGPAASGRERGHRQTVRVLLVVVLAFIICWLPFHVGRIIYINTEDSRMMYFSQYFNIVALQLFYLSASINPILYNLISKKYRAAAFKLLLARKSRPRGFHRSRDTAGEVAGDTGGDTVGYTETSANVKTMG

These recorded examples may help you get a feel for the data.
compound	tested target	AC50
COc1ccc2nc3cc(Cl)ccc3c(Nc3cc(CN4CCCC4)c(O)c(CN4CCCC4)c3)c2n1	Motilin receptor (Homo sapiens)	> 30 µM
Cc1cnc(C(=O)NCCc2ccc(S(=O)(=O)NC(=O)NC3CCCCC3)cc2)cn1 [GLIPIZIDE]	Motilin receptor (Homo sapiens)	> 10 µM
COc1cc2nc(N3CCN(C(=O)C4CCCO4)CC3)nc(N)c2cc1OC (stereo not drawn)	Motilin receptor (Homo sapiens)	> 10 µM
C=C[C@@]1(C)CC(=O)[C@]2(O)[C@@]3(C)[C@@H](O)CCC(C)(C)[C@@H]3[C@H](O)[C@H](OC(C)=O)[C@@]2(C)O1	Motilin receptor (Homo sapiens)	> 30 µM

Per the reported Motilin receptor (Homo sapiens) data, `C[C@H]1c2cccc(O)c2C(=O)C2=C(O)[C@]3(O)C(=O)C(C(N)=O)=C(O)[C@@H](N(C)C)[C@@H]3[C@@H](O)[C@@H]21` has AC50 of > 10 µM

Per the reported Motilin receptor (Homo sapiens) data, CCOC(=O)c1cncn1[C@H](C)c1ccccc1 [ETOMIDATE] has AC50 of > 10 µM

Per the reported Motilin receptor (Homo sapiens) data, CCC1(c2ccccc2)CCC(=O)NC1=O (stereo not drawn) [GLUTETHIMIDE] has AC50 of > 10 µM

Per the reported Motilin receptor (Homo sapiens) data, CC(N)C12CC3CC(CC(C3)C1)C2 (stereo not drawn) has AC50 of > 10 µM

###

- tested target: Androgen receptor (Rattus norvegicus, UniProt P15207); further: assay procedure not described here
- Sequence (P15207 whole entry S389L): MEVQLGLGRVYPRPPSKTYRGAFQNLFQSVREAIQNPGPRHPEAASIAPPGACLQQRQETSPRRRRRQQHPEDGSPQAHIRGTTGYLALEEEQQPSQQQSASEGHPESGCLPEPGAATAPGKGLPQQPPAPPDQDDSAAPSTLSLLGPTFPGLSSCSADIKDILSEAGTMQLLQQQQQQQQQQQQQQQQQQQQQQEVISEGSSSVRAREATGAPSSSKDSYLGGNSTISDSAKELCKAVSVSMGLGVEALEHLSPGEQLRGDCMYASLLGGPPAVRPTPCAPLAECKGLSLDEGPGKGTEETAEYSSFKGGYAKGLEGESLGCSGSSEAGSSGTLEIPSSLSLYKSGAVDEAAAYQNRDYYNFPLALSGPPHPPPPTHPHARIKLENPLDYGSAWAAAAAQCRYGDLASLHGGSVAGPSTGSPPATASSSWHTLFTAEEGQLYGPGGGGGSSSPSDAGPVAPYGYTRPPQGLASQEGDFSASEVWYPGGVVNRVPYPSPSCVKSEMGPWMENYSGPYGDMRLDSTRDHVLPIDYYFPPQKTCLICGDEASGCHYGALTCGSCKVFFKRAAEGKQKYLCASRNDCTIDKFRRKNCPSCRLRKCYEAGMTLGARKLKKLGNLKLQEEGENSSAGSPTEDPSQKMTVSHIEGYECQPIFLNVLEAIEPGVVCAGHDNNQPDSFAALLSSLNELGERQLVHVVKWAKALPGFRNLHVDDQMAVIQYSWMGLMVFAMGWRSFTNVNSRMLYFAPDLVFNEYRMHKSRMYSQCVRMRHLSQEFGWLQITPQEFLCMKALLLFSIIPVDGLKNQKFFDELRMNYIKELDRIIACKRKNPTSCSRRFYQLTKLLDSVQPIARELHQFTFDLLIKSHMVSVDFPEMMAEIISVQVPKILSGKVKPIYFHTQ
- Format: functional
observable: AC50

These recorded examples may help you get a feel for the data.
compound	tested target	AC50
CCCCCCCCCCCCCCCCCCCCCC(=O)Nc1ccn([C@@H]2O[C@H](CO)[C@@H](O)[C@@H]2O)c(=O)n1	Androgen receptor (Rattus norvegicus, UniProt P15207)	> 30 µM
Clc1ccc2c(N3CCN(CCCN4CCN(c5ccnc6cc(Cl)ccc56)CC4)CC3)ccnc2c1	Androgen receptor (Rattus norvegicus, UniProt P15207)	> 30 µM
Oc1ccc2c(c1)CC[C@H](c1ccccc1)[C@@H]2c1ccc(OCCN2CCCC2)cc1	Androgen receptor (Rattus norvegicus, UniProt P15207)	23 µM
C[C@@H](NCCCc1cccc(C(F)(F)F)c1)c1cccc2ccccc12	Androgen receptor (Rattus norvegicus, UniProt P15207)	> 30 µM
C=C1/C(=C\C=C2/CCC[C@]3(C)[C@@H]([C@H](C)/C=C/[C@@H](O)C4CC4)CC[C@@H]23)C[C@@H](O)C[C@@H]1O	Androgen receptor (Rattus norvegicus, UniProt P15207)	28 µM

AC50 reported for this compound NC1CCN(c2nc3c(cc2F)c(=O)c(C(=O)O)cn3-c2ccc(F)cc2F)C1 (stereo not drawn) : > 30 µM

AC50 reported for this compound `COc1ccc2nc3cc(Cl)ccc3c(Nc3cc(CN4CCCC4)c(O)c(CN4CCCC4)c3)c2n1` : > 10 µM

AC50 reported for this compound `CN(C)CCCNc1c2ccccc2nc2cccc([N+](=O)[O-])c12` : > 30 µM

AC50 reported for this compound `C=CCNc1nc(NCC=C)nc(N2CCN(C(c3ccc(F)cc3)c3ccc(F)cc3)CC2)n1` : > 30 µM

AC50 reported for this compound Cc1cccc(N2CC(CO)OC2=O)c1 (stereo not drawn) : > 30 µM

AC50 reported for this compound `COCC1=C(C(=O)O)N2C(=O)[C@@H](NC(=O)/C(=N\OC)c3csc(N)n3)[C@H]2SC1` : > 30 µM
